Across several publications, the following Ki results were reported for the protein given by its sequence.
Protein target, amino acids: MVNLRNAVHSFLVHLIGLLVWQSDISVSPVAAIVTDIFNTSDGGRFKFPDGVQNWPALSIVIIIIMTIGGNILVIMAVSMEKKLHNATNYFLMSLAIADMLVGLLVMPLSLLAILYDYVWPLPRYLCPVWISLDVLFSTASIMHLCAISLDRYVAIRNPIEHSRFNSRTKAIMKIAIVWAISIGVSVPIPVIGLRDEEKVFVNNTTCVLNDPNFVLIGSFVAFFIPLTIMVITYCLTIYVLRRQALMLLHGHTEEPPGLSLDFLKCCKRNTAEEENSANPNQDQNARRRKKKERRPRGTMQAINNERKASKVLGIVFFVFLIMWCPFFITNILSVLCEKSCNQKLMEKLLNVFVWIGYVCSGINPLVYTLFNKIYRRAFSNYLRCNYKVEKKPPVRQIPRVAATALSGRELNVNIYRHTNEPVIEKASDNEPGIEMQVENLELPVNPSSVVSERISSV
Express your answer in nM, writing the number without its unit.

Query: Return reported Ki; argument: COc1cc2c(cc1C(F)(F)C(F)(F)F)N(C(=O)Nc1cccnc1)CC2
Response: 12.6

Query: Could you share which Ki value was measured for CN(C)C[C@H]1C[C@H]2c3ccccc3Oc3ccccc3[C@@H]2O1 ?
Response: 183

Query: Form field: reported Ki of Cc1cccc(N2CCN(CCCCNC(=O)c3cc4ccccc4o3)CC2)c1
Response: 206

Query: Ki for N#Cc1c[nH]c2c(C(=O)N3CCN(CCc4ccc(F)cc4)CC3)cccc12 ?
Response: 645

Query: What value of Ki has been reported for the following molecule? CSc1ccc2c(c1)CCN2C(=O)Nc1cccnc1
Response: 39.8

###

Record set: pKi | 5-hydroxytryptamine receptor 2C (Homo sapiens, UniProt P28335) | literature, multiple sources.
TESTED TARGET: 5-hydroxytryptamine receptor 2C (Homo sapiens, UniProt P28335)
Sequence (P28335 whole entry): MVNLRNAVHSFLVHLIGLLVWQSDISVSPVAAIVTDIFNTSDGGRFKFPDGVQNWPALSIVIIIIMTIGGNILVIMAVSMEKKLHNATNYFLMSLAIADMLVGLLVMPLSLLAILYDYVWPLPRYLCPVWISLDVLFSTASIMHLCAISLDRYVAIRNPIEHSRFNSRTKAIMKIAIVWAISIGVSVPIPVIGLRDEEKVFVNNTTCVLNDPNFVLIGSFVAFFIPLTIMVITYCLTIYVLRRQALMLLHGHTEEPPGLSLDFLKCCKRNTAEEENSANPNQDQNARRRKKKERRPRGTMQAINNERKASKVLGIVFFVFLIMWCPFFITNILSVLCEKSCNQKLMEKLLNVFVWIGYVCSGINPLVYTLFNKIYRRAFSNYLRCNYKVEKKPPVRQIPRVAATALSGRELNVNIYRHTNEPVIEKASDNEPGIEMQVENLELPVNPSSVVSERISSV
The quantity pKi is defined as the negative base-10 logarithm of the molar concentration.

Query: Which pKi value belongs to Nc1ccccc1C(=O)CCCN1CC[C@H]2[C@@H](C1)c1cccc3c1N2CCO3 ?
Response: 6.47

Query: Item CNc1nc(C#Cc2ccc(Cl)s2)nc2c1ncn2[C@H]1[C@H](O)[C@H](O)[C@]2(C(=O)OC(C)C)C[C@H]12 has what recorded pKi?
Response: 6.37

Query: # get_value(readout='pKi', item= Cl.O=S(=O)(c1cccc(Cl)c1)c1n[nH]c2ccc(NC3CCNCC3)cc12 )
Response: 5.61

Query: Entry under review: COc1ccc2c(c1)c1c(n2C)CN(c2ccc(OC)c(OCCN3CCCCC3)c2)C1=O . Reported pKi?
Response: 7.50

Query: Sample Fc1ccc(-c2[nH]c3cc(F)ccc3c2[C@@H]2CNCC[C@H]2F)cc1 — what was its pKi?
Response: 7.72

Query: Form field: reported pKi of CN1CCC(=C2c3ccccc3CCc3sccc32)CC1
Response: 8.85

Query: Name the recorded pKi for O=C(CCCN1CCN(c2ccc(Cl)cc2)CC1)c1ccc(F)cc1 .
Response: 5.45
